Tested on: Zea mays (ZEAMX)
Procedure Details: Pre-emergence herbicidal evaluation, maize
Type: in vivo
Setup Conditions: dose 0.1 kg/ha
Recorded Endpoint: ZEAMX rating

>>> print(df.to_string())
                               input_smiles  recorded_endpoint                obs_value
0  COc1cc(OCC(F)(F)C(F)F)nc(Oc2cc(C(F)(F)F)nn2C)c1       ZEAMX rating  3 (3 - Moderate effect)
1  CC(Cl)=CCOc1cc(C)cc(Oc2cc(C(F)(F)F)nn2C)n1       ZEAMX rating  3 (3 - Moderate effect)

Param item = Cc1cc(OCC(F)(F)C(F)F)nc(Oc2cc(C(F)(F)F)nn2C)c1 ; retrieve measured ZEAMX rating.
3 (3 - Moderate effect)

Param item = Cc1cc(OCC=C(Cl)Cl)nc(Oc2cc(C(F)(F)F)nn2C)c1 ; retrieve measured ZEAMX rating.
3 (3 - Moderate effect)

Param item = Cc1cc(OCC(F)(F)C(F)(F)C(F)(F)C(F)F)nc(Oc2cc(C(F)(F)F)nn2C)c1 ; retrieve measured ZEAMX rating.
1 (1 - Trace effect)

Param item = Cc1cc(OCC(F)(F)C(F)(F)F)nc(Oc2cc(C(F)(F)F)nn2C)c1 ; retrieve measured ZEAMX rating.
0 (0 - No effect)

Param item = Cc1cc(OC=CCC(F)(F)F)nc(Oc2cc(C(F)(F)F)nn2C)c1 ; retrieve measured ZEAMX rating.
2 (2 - Slight effect)

* * *

Tested on: Lamium purpureum (LAMPU)
Procedure Details: Post-emergence herbicidal evaluation, purple deadnettle
Format: in vivo
Setup Conditions: dose 0.4 kg/ha, rated 2 to 4 weeks after treatment
Recorded Endpoint: LAMPU rating

In [3]: df
Out[3]:
                               input_smiles                          obs_value
0  COc1cc(OCC(F)(F)C(F)F)nc(Oc2cc(C(F)(F)F)nn2C)c1  8 (8 - Approaching complete kill)

Param item = Cc1cc(OCC(F)(F)C(F)F)nc(Oc2cc(C(F)(F)F)nn2C)c1 ; retrieve measured LAMPU rating.
7 (7 - Good herbicidal effect)

Param item = Cc1cc(OC=CCC(F)(F)F)nc(Oc2cc(C(F)(F)F)nn2C)c1 ; retrieve measured LAMPU rating.
8 (8 - Approaching complete kill)

Param item = Cc1cc(OC/C=C/C(F)(F)F)nc(Oc2cc(C(F)(F)F)nn2C)c1 ; retrieve measured LAMPU rating.
8 (8 - Approaching complete kill)

Param item = Cc1cc(OCC=C(Cl)Cl)nc(Oc2cc(C(F)(F)F)nn2C)c1 ; retrieve measured LAMPU rating.
8 (8 - Approaching complete kill)

Param item = Cc1cc(OCC(F)(F)C(F)(F)F)nc(Oc2cc(C(F)(F)F)nn2C)c1 ; retrieve measured LAMPU rating.
6 (6 - Herbicidal effect)

Param item = Cc1cc(OCC(F)(F)C(F)(F)C(F)(F)C(F)F)nc(Oc2cc(C(F)(F)F)nn2C)c1 ; retrieve measured LAMPU rating.
9 (9 - Complete kill)

Param item = CC(Cl)=CCOc1cc(C)cc(Oc2cc(C(F)(F)F)nn2C)n1 ; retrieve measured LAMPU rating.
8 (8 - Approaching complete kill)

* * *

Tested on: Cassia obtusifolia (CASOB)
Procedure Details: Post-emergence herbicidal evaluation, sicklepod
Assay type: in vivo
Setup Conditions: dose 0.4 kg/ha, rated 2 to 4 weeks after treatment
Method: [table] […] These acetone solutions are diluted with water and the resulting formulations applied at dosage levels equivalent of about 0.03 to 0.4 kg per hectare of test compound per pot. After spraying the plants are placed on greenhouse benches and are cared for in the usual manner, commensurate with conventional greenhouse practices. From 2 to 4 weeks after treatment, the seedling plants are examined and rated according to the rating system provided above. […]
Recorded Endpoint: CASOB rating

>>> print(df.to_string())
                               input_smiles                      target                       obs_value
0  Cc1cc(OCC(F)(F)C(F)(F)C(F)(F)C(F)F)nc(Oc2cc(C(F)(F)F)nn2C)c1  Cassia obtusifolia (CASOB)  7 (7 - Good herbicidal effect)

Param item = Cc1cc(OCC=C(Cl)Cl)nc(Oc2cc(C(F)(F)F)nn2C)c1 ; retrieve measured CASOB rating.
8 (8 - Approaching complete kill)

Param item = Cc1cc(OCC(F)(F)C(F)F)nc(Oc2cc(C(F)(F)F)nn2C)c1 ; retrieve measured CASOB rating.
6 (6 - Herbicidal effect)

Param item = Cc1cc(OC/C=C/C(F)(F)F)nc(Oc2cc(C(F)(F)F)nn2C)c1 ; retrieve measured CASOB rating.
5 (5 - Definite injury)

* * *

Test system: Zea mays (ZEAMX)
Procedure Details: Post-emergence herbicidal evaluation, maize
Format: in vivo
Setup Conditions: dose 0.1 kg/ha, rated 2 to 4 weeks after treatment
Recorded Endpoint: ZEAMX rating

In the examples that follow, each entry is paired with its recorded ZEAMX rating.
In [3]: df
Out[3]:
                               input_smiles                obs_value
0  Cc1cc(OCC(F)(F)C(F)F)nc(Oc2cc(C(F)(F)F)nn2C)c1    2 (2 - Slight effect)
1  Cc1cc(OCC=C(Cl)Cl)nc(Oc2cc(C(F)(F)F)nn2C)c1           4 (4 - Injury)
2  Cc1cc(OC/C=C/C(F)(F)F)nc(Oc2cc(C(F)(F)F)nn2C)c1  5 (5 - Definite injury)
3  Cc1cc(OCC(F)(F)C(F)(F)C(F)(F)C(F)F)nc(Oc2cc(C(F)(F)F)nn2C)c1     1 (1 - Trace effect)
4  CC(Cl)=CCOc1cc(C)cc(Oc2cc(C(F)(F)F)nn2C)n1  5 (5 - Definite injury)
5  COc1cc(OCC(F)(F)C(F)F)nc(Oc2cc(C(F)(F)F)nn2C)c1  3 (3 - Moderate effect)
6  Cc1cc(OCC(F)(F)C(F)(F)F)nc(Oc2cc(C(F)(F)F)nn2C)c1    2 (2 - Slight effect)

Param item = Cc1cc(OC=CCC(F)(F)F)nc(Oc2cc(C(F)(F)F)nn2C)c1 ; retrieve measured ZEAMX rating.
4 (4 - Injury)

* * *

System: Echinochloa grus galli (ECHCG)
Procedure Details: Post-emergence herbicidal evaluation, barnyard grass
Assay type: in vivo
Setup Conditions: dose 0.03 kg/ha, rated 2 to 4 weeks after treatment
Recorded Endpoint: ECHCG rating

In the examples that follow, each entry is paired with its recorded ECHCG rating.
>>> df
                                   compound                          obs_value
0  Cc1cc(OCC(F)(F)C(F)(F)C(F)(F)C(F)F)nc(Oc2cc(C(F)(F)F)nn2C)c1 [Example 8]              2 (2 - Slight effect)
1  Cc1cc(OC=CCC(F)(F)F)nc(Oc2cc(C(F)(F)F)nn2C)c1 [Example 2]              2 (2 - Slight effect)
2  CC(Cl)=CCOc1cc(C)cc(Oc2cc(C(F)(F)F)nn2C)n1 [Example 11]  8 (8 - Approaching complete kill)
3  Cc1cc(OCC(F)(F)C(F)(F)F)nc(Oc2cc(C(F)(F)F)nn2C)c1 [Example 7]                     4 (4 - Injury)
4  COc1cc(OCC(F)(F)C(F)F)nc(Oc2cc(C(F)(F)F)nn2C)c1 [Example 4]          6 (6 - Herbicidal effect)
5  Cc1cc(OCC=C(Cl)Cl)nc(Oc2cc(C(F)(F)F)nn2C)c1 [Example 12]              9 (9 - Complete kill)

Param item = Cc1cc(OC/C=C/C(F)(F)F)nc(Oc2cc(C(F)(F)F)nn2C)c1 [Example 1] ; retrieve measured ECHCG rating.
5 (5 - Definite injury)

* * *

Tested on: Glycine max (GLXMA)
Procedure Details: Pre-emergence herbicidal evaluation, soyabeans
Type: in vivo
Setup Conditions: dose 0.025 kg/ha
From the text: The pre-emergence herbicidal activity of the compounds of the present invention is exemplified by the following test in which the seeds of a variety of monocotyledonous and dicotyledonous plants are seperately mixed with potting soil and planted on top of approximately one inch of soil in separate pots. […]
Readings of GLXMA rating for the listed molecules

>>> df
                               input_smiles              obs_value
0  COc1cc(OCC(F)(F)C(F)F)nc(Oc2cc(C(F)(F)F)nn2C)c1         4 (4 - Injury)
1  Cc1cc(OC=CCC(F)(F)F)nc(Oc2cc(C(F)(F)F)nn2C)c1   1 (1 - Trace effect)
2  Cc1cc(OCC=C(Cl)Cl)nc(Oc2cc(C(F)(F)F)nn2C)c1  2 (2 - Slight effect)
3  Cc1cc(OCC(F)(F)C(F)(F)C(F)(F)C(F)F)nc(Oc2cc(C(F)(F)F)nn2C)c1   1 (1 - Trace effect)
4  Cc1cc(OC/C=C/C(F)(F)F)nc(Oc2cc(C(F)(F)F)nn2C)c1   1 (1 - Trace effect)

Param item = CC(Cl)=CCOc1cc(C)cc(Oc2cc(C(F)(F)F)nn2C)n1 ; retrieve measured GLXMA rating.
1 (1 - Trace effect)

Param item = Cc1cc(OCC(F)(F)C(F)(F)F)nc(Oc2cc(C(F)(F)F)nn2C)c1 ; retrieve measured GLXMA rating.
0 (0 - No effect)

Param item = Cc1cc(OCC(F)(F)C(F)F)nc(Oc2cc(C(F)(F)F)nn2C)c1 ; retrieve measured GLXMA rating.
2 (2 - Slight effect)
